Experiment: qHTS of pediatric cancer cell lines to identify multiple opportunities for drug repurposing: Primary screen for SK-N-MC cells (AID 1347093)
Conditions: SK-N-MC viability, CellTiter-Glo luminescence, 48 h; series mostly up to 46 µM
Inconclusive results are not listed. Calls of active or inactive are those of the source. Calls follow the shape of the dose curve; as a rule, active = well fitted cell-killing curve with a large enough effect; inconclusive = small, poorly fitted or top-dose-only effect; inactive = no such curve, though single readings can be large or run the other way.
Just give me one of these, please: t for active, f for inactive

Sample answers from the record:
Molecule: CC(C)(C(=O)NCC(F)(F)C(F)(F)F)C(=O)N[C@@H]1C(=O)Nc2ccccc2-c2ccccc21
Assigned Class: t

Molecule: COc1ccc(-c2coc3cc(O)ccc3c2=O)cc1
Assigned Class: f

Molecule: CN1[C@@H]2CCC[C@@H]1CC(NC(=O)c1nn(C)c3ccccc13)C2 (stereo not given in full)
Assigned Class: f

Molecule: CC[C@H]1OC(=O)[C@H](C)[C@@H](O[C@H]2C[C@@](C)(OC)[C@@H](O)[C@H](C)O2)[C@H](C)[C@@H](O[C@@H]2O[C@H](C)C[C@H](N(C)C)[C@@H]2O)[C@](C)(O)C[C@@H](C)CN(C)[C@H](C)[C@@H](O)[C@]1(C)O
Assigned Class: f

Molecule: O=c1cc(-c2cccc3c2Sc2ccccc2S3)oc(N2CCOCC2)c1
Assigned Class: t

Molecule: O=c1cc(N2CCOCC2)oc2c(-c3cccc4c3sc3ccccc34)cccc12
Assigned Class: t

Molecule: CCn1cc(C(=O)O)c(=O)c2ccc(C)nc21
Assigned Class: f

Molecule: C=CCc1ccc(O)c(-c2ccc(O)c(CC=C)c2)c1
Assigned Class: t

Molecule: COc1ccc(-c2nc(N3CCOCC3)c3sc(CN(C)c4ncc(C(=O)NO)cn4)cc3n2)cn1
Assigned Class: t

Molecule: N#Cc1ccc(NC(=O)Nc2ccccc2Br)c2n[nH]nc12
Assigned Class: t

Ask: Returns: the outcome recorded for COc1cc(N2CCC(N3CCN(C)CC3)CC2)ccc1Nc1ncc(Cl)c(Nc2ccccc2S(=O)(=O)C(C)C)n1 in this assay.
Reply: t

Ask: Follow-up entry: CNC(=O)c1ccccc1Sc1ccc2c(C=Cc3ccccn3)n[nH]c2c1
Reply: t

Ask: Follow-up entry: N#CC1(c2ccc(NC(=O)c3cccnc3NCc3ccncc3)cc2)CCCC1
Reply: f

Ask: Follow-up entry: CC(=O)Nc1ccc([C@H](C)C(=O)Nc2ncc(C(C)C)s2)cc1
Reply: t

Ask: Follow-up entry: CC(=O)CCCCn1c(=O)c2c(ncn2C)n(C)c1=O
Reply: f

Ask: Follow-up entry: CC(C)(C)C(=O)Oc1ccc2c(c1)nc(NC(=O)c1cccc([N+](=O)[O-])c1)n2CCCO
Reply: t

Ask: Follow-up entry: O=C1C(Cl)=C(NCCN2CCOCC2)C(=O)c2ncccc21
Reply: t

---

z-score values, listed per item
Assay: qHTS for identification of novel therapeutic agents for treatment of microphthalmiaassociated transcription factor (MiT) renal cell carcinoma (RCC) (AID 1963991);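 also: curves scaled with 100% = DMSO viability and 0% = empty wells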
Details: TFE3-RCC UOK109 viability, CellTiter-Glo, 48 h; measured here: UOK109 Z-AUC; stronger effect = lower value
Protocol: PI: Marston Linehan Ph.D. Urologic Oncology Branch, Center for Cancer Research (CCR) National Cancer Institute (NCI), National Institute of Health (NIH), Bethesda, Maryland […] 6; Detection; Luminescence; ViewLux plate reader (PerkinElmer). […] 1. Quantitative high-throughput screening (qHTS) of 1912 pharmacologically defined small molecule compounds was conducted on three TFE3-fusion cell lines bearing three different fusion partners (UOK109, UOK124, UOK145). […]
Results filed as inconclusive are left out.
# answer = number (no unit)

Observe how each entry below is paired with its result.
Molecule: CC1CCC(C(=O)N(c2cc(C#CC(C)(C)C)sc2C(=O)O)C2CCC(O)CC2)CC1 (centres undefined)
z-score: 1.18

Molecule: O=C1c2ccccc2-[n+]2ccc3c([nH]c4ccccc43)c21
z-score: -1.69

Molecule: O=C(NC1CCOCC1)c1ccc(-c2cc(-c3cn[nH]c3-c3ccccn3)ccn2)cc1
z-score: 0.905

Ask: GET /values?readout=z-score&item= NC[C@@H]1O[C@@H](O[C@H]2[C@@H](O)[C@H](O[C@@H]3[C@@H](O)[C@@H](N)C[C@H](N)[C@H]3O[C@H]3O[C@H](CN)[C@@H](O)[C@@H](O)[C@H]3N)O[C@H]2CO)[C@H](N)[C@@H](O)[C@@H]1O
Reply: 1.35

---

Tested on: CP315
Test: qHTS profiling for inhibitors of Plasmodium falciparum proliferation (AID 504749);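 also: 0% = DMSO vehicle and full inhibition = artemisinin control; nearly all actives have a fitted effect of over 60% in size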
Conditions: P. falciparum in erythrocytes, SYBR Green DNA, 72 h; series mostly up to 28.7 µM
Protocol: NIH National Institute of Allergy and Infectious Diseases [NIAID] NIH Chemical Genomics Center [NCGC] […] Because mature erythrocytes lack DNA, only Plasmodium-derived DNA is detected. NCGC Assay Protocol Summary: The SYBR Green viability assay was adapted from a method described previously (Plouffe et al., 2008). […] The following morning, fluorescence intensity at 485(14) nm excitation and 535(25) nm emission wavelengths was measured on an EnVision (Perkin Elmer) plate reader. […]
Results filed as inconclusive are left out. Activity calls are given as the source filed them. Calls follow the shape of the dose curve; as a rule, active = well fitted inhibition curve with a large enough effect; inconclusive = small, poorly fitted or top-dose-only effect; inactive = flat fitted curve, though single readings scatter.
Readout Type: outcome

Observe how each entry below is paired with its result.
Compound: O=C(O)c1c(Cl)c(Cl)c(Cl)c(Cl)c1-c1c2cc(I)c(=O)c(I)c-2oc2c(I)c(O)c(I)cc12
outcome: inactive
--
Compound: CCN(CC)CCNC(=O)c1ccc(N)cc1
outcome: inactive
--
Compound: Cc1cccc(C)c1OCC(C)N (stereo unspecified)
outcome: inactive
--
Compound: O=c1[nH]cnc2c1ncn2[C@H]1CC[C@@H](CO)O1
outcome: inactive
--
Compound: C[C@@H](O)[C@H]1C(=O)N2C(C(=O)O)=C(S[C@@H]3CN[C@H](C(=O)N(C)C)C3)[C@H](C)[C@H]12
outcome: inactive

Query compound follows.
Ask: GET /values?readout=outcome&item= CCN(CC)C(=O)c1ccc(O)c(OC)c1
Reply: inactive

---

Experiment: qHTS of pediatric cancer cell lines to identify multiple opportunities for drug repurposing: Primary screen for OHS-50 cells (AID 1347103); also: nearly all actives have a fitted effect of over 40% in size; also: potency is read from the fitted curve at half-maximal effect
Settings: OHS-50 osteosarcoma viability, CellTiter-Glo luminescence, 48 h; series mostly up to 57.3 µM
Procedure: Drug repurposing or repositioning has been offered as a strategy for drug development in oncology programs. […] [1] Shen, M et al. Quantitative high-throughput phenotypic screening of pediatric cancer cell lines identifies multiple opportunities for drug repurposing. […] Cells were assayed in growth media at a density of 500-1,000 cells/well. […] After a 15 min incubation at room temperature, samples were analyzed for luminescence intensity using a ViewLux High-throughput CCD imager equipped with clear filters.
Results filed as inconclusive are left out. Active and inactive are the calls of the source. Calls follow the shape of the dose curve; as a rule, active = well fitted cell-killing curve with a large enough effect; inconclusive = small, poorly fitted or top-dose-only effect; inactive = no such curve, though single readings can be large or run the other way.
Readout Type: Potency

Observe how each entry below is paired with its result.
Compound: CC(C)(C)C(=O)Oc1ccc2c(c1)nc(NC(=O)c1cccc([N+](=O)[O-])c1)n2CCCO
Potency: inactive
//
Compound: O=C1NCC2(CCN(CCc3ccccc3)CC2)O1
Potency: inactive
//
Compound: CC(=O)O[C@]1(C(C)=O)CC[C@H]2[C@@H]3C=C(Cl)C4=CC(=O)[C@@H]5C[C@@H]5[C@]4(C)[C@H]3CC[C@@]21C
Potency: 34.7 µM (active)
//
Compound: COc1cccc([C@@H](C)NCCCc2ccccc2Cl)c1
Potency: inactive
//
Compound: O=c1cc(-c2ccccc2)oc2cc(O)cc(O)c12
Potency: inactive
//
Compound: Cc1ccc([C@@H]2O[C@H](CO)[C@@H](O)[C@H](O)[C@@H]2O)cc1Cc1ccc(-c2ccc(F)cc2)s1
Potency: 34.3 µM (active)
//
Compound: CS(=O)c1ccc(-c2nc(-c3ccc(F)cc3)c(-c3ccncc3)[nH]2)cc1 (centres undefined)
Potency: 44.4 µM (active)
//
Compound: CN1CCN(CCOc2cc(OC3CCOCC3)c3c(Nc4c(Cl)ccc5c4OCO5)ncnc3c2)CC1
Potency: 17.2 µM (active)

Query compound follows.
Ask: GET /values?readout=Potency&item= COc1ccc2c(Oc3ccc(NC(=O)c4c(C)n(CC(C)(C)O)n(-c5ccccc5)c4=O)nc3)ccnc2c1
Reply: 5.44 µM (active)

---

Target: Luciferin 4-monooxygenase (Photinus pyralis)
Test: Primary firefly luciferase (FLuc) qHTS assay for identification of artifact compounds. (AID 1845220); also: nearly all actives have a fitted effect of over 60% in size
Details: purified firefly luciferase, luminescence, 5 min; series mostly up to 54.1 µM
Activity calls are given as the source filed them. Calls follow the shape of the dose curve; as a rule, active = well fitted inhibition curve with a large enough effect; inconclusive = small, poorly fitted or top-dose-only effect; inactive = flat fitted curve, though single readings scatter.
Just give me one of these, please: active, inactive

Sample answers from the record:
Compound: COCCOC(=O)C1=C(C)NC2=C(C(=O)CC(c3ccccc3OC)C2)C1c1cccc(O)c1 (configuration not stated)
Subject Of Test: Luciferin 4-monooxygenase (Photinus pyralis)
Assigned Class: inactive
//
Compound: CN(C)Cc1ccc(-c2nc3cccc4c3n2CCNC4=O)cc1
Subject Of Test: Luciferin 4-monooxygenase (Photinus pyralis)
Assigned Class: inactive

Ask: Returns: the outcome recorded for COC(=O)[C@@H]1[C@H]2C[C@H]3c4[nH]c5ccccc5c4CCN3C[C@@H]2CC[C@@H]1O in this assay.
Reply: inactive

Ask: Follow-up entry: CC(C)NCC(O)COc1cccc2[nH]ccc12 (configuration not stated)
Reply: inactive

Ask: Follow-up entry: CN(C)C1CCN(C(=O)c2ccc(NC(=O)Nc3nc(N4CCOCC4)nc(N4CCOCC4)n3)cc2)CC1
Reply: inactive

Ask: Follow-up entry: CC(C)C(=O)Oc1ccc(CO)cc1[C@H](CCN(C(C)C)C(C)C)c1ccccc1
Reply: inactive

Ask: Follow-up entry: NC(=O)c1ccc2nc(-c3ccc(Oc4ccc(Cl)cc4)cc3)[nH]c2c1
Reply: active
